# systemUnderTest: human GnRHR1 (Homo sapiens, UniProt P30968)
# Sequence (P30968 whole entry): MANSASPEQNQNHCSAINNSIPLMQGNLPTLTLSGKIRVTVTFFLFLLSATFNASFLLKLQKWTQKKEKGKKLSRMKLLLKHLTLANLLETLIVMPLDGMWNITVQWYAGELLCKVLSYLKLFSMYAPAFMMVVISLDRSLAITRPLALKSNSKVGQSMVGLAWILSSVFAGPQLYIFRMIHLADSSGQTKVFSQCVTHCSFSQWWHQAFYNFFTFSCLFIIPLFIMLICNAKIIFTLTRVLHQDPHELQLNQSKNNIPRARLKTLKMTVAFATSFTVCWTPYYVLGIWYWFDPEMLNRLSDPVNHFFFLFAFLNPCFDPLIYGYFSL
# testName: Inhibitory effect for the change of calcium levels in GnRH-stimulated cells (hGnRHR1#1 HEK293 cells)
# experimentalConditions: hGnRHR1#1 cells (HEK293 stably expressing human GnRHR1), 10 nM GnRH added, FLIPR calcium dye; read-out: IC50 (drug concentration at which 50% GnRH-stimulated intracellular calcium flux was inhibited)
propertyMeasured: IC50 (nM)
Write down the numeric answer in nM and omit the unit.

Reported IC50 for CN(Cc1c(F)cccc1F)c1ccc(F)c(-n2c(=O)[nH]c3csc(C(=O)O)c3c2=O)c1 [Example 2] was 133

Reported IC50 for COCCOc1ccc(F)c(F)c1CN(C)c1ccc(F)c(-n2c(=O)[nH]c3csc(C(=O)O)c3c2=O)c1 [Example 1] was 51

====

Can you tell me C360 (plasma drug concentration at 360 minutes after administration) for the items I'm about to list?
# testName: Assay for oral absorbability: plasma drug concentration after oral administration to rats
# Type: in vivo, SD rats
# experimentalConditions: fasted male SD rats, oral 3 mg/kg, plasma, 360 minutes after administration
Write down the numeric answer in ng/mL and omit the unit.

Reported C360 (plasma drug concentration at 360 minutes after administration) for `CN(Cc1c(F)cccc1F)c1ccc(F)c(-n2c(=O)[nH]c3csc(C(=O)O)c3c2=O)c1` was 2170

Reported C360 (plasma drug concentration at 360 minutes after administration) for `COCCOc1ccc(F)c(F)c1CN(C)c1ccc(F)c(-n2c(=O)[nH]c3csc(C(=O)O)c3c2=O)c1` was 1010
